Target: NEK7 (Homo sapiens (Human), UniProt Q8TDX7+Q96SW2)
Sequence (Q8TDX7 whole entry): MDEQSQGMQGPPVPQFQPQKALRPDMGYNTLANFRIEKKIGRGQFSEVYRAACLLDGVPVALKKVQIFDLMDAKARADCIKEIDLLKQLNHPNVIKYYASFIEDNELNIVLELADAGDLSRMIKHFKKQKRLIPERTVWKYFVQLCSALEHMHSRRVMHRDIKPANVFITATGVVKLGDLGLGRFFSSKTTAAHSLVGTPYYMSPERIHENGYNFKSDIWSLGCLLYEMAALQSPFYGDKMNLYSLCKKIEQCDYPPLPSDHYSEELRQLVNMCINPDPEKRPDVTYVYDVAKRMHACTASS
Sequence (Q96SW2 whole entry): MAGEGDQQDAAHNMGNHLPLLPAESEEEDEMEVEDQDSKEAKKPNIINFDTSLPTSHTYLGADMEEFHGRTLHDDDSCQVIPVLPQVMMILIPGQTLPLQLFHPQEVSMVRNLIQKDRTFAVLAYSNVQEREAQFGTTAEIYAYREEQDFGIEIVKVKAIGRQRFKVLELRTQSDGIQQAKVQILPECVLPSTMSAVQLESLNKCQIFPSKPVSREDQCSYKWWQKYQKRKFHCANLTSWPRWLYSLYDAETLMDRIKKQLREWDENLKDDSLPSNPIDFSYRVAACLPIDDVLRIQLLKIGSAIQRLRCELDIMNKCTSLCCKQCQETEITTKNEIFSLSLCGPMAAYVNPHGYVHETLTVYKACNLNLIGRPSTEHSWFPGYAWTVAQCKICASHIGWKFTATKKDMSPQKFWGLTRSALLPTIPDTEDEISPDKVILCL
Sequence (Q16531 2-1140 partner): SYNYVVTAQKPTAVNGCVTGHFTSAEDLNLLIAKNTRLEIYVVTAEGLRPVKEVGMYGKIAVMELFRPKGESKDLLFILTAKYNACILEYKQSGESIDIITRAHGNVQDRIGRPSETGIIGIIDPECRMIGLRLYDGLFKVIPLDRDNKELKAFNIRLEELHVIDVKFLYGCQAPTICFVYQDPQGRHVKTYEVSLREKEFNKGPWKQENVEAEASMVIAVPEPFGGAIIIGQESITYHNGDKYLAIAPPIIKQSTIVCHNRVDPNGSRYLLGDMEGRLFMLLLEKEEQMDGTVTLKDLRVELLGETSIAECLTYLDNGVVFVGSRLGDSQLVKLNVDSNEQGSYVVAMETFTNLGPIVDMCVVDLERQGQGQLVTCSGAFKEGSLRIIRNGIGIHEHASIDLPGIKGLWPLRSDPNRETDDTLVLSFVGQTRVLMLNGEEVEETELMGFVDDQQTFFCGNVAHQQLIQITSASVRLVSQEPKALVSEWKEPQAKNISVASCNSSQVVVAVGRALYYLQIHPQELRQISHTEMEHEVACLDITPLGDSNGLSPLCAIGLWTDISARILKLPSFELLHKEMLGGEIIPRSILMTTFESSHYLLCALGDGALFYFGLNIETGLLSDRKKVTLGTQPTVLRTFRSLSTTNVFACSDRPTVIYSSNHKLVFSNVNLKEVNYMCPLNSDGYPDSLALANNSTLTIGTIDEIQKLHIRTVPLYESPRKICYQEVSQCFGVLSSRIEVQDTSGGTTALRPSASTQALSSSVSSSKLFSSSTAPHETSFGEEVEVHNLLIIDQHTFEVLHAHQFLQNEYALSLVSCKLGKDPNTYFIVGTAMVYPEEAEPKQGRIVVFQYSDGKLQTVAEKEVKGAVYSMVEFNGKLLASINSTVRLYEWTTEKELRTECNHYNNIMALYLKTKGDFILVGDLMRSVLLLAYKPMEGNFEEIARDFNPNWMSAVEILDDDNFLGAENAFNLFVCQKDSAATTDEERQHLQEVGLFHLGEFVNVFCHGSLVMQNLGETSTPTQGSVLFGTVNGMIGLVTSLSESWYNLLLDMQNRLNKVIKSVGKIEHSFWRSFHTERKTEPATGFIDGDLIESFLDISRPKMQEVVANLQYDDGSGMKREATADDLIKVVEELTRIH
Test: NEK7 NanoBiT degradation assay in Cal51 NEK7 NanoBiT cell line
Assay type: cell-based
Conditions: CAL-51; Cal51 NEK7 NanoBiT cells, 24 hours; read-out: NEK7 NanoBiT Dmax
Mark each entry met if its Dmax sits below 80%, and not met for all others.

Dear colleague, could you confirm whether Dmax of CC(C)(C(=O)NCc1ccc(C2CCC(=O)NC2=O)c(Cl)c1)c1ccccc1F (stereo not drawn) [Compound 24] falls below 80%? Thanks. met

# TODO verify Dmax < 80% strictly for this compound: CC(C)(C(=O)NCc1cc(Cl)c(C2CCC(=O)NC2=O)c(Cl)c1)c1ccc2nnccc2c1 (stereo not drawn) [Compound 41] not met

Is Dmax strictly under 80% for the entry CC(C)(C(=O)NCc1cc(Cl)c(C2CCC(=O)NC2=O)c(Cl)c1)c1nc(C2CC2)no1 (stereo not drawn) [Compound 218] ? met

Dmax under 80%? Item: Cc1ocnc1C(C)(C)C(=O)NCc1cc(Cl)c(C2CCC(=O)NC2=O)c(Cl)c1 (stereo not drawn) [Compound 236] met

Determine whether this compound shows Dmax lower than 80% (ties excluded): Cc1ccnc(C(C)(C)C(=O)NCc2cc(Cl)c(C3CCC(=O)NC3=O)c(Cl)c2)n1 (stereo not drawn) [Compound 160] met

Please indicate whether the reported Dmax of CC(C)(C(=O)NCc1cc(Cl)c(C2CCC(=O)NC2=O)c(Cl)c1)c1cc(F)c(S(N)(=O)=O)c(F)c1 (stereo not drawn) [Compound 36] is strictly below 80%. not met

Please determine if Cn1ccc(C2(C(=O)NCc3cc(Cl)c(C4CCC(=O)NC4=O)c(Cl)c3)CCC2)cc1=O (stereo not drawn) [Compound 177] is below 80% in terms of Dmax. not met

For this compound, is Dmax lower than 80%? CC(C)(C(=O)NCc1cc(Cl)c(C2CCC(=O)NC2=O)c(Cl)c1)c1ccnc(C#N)c1 (stereo not drawn) [Compound 92] met

Does CC(C)(C(=O)NCc1ccc(C2CCC(=O)NC2=O)c(Cl)c1)c1ccccc1 (stereo not drawn) [Compound 103] have Dmax strictly under 80%? not met

Regarding CC(C)(C(=O)NCc1cc(Cl)c([C@@H]2CCC(=O)NC2=O)c(Cl)c1)c1ncc(C#N)cn1 (single isomer, unassigned) [Compound 152] , kindly confirm whether its Dmax is beneath 80%. not met

Dmax strictly < 80% for this compound? Cc1nnc(C2(C(=O)NCc3cc(Cl)c(C4CCC(=O)NC4=O)c(Cl)c3)CCC2)o1 (stereo not drawn) [Compound 226] met

Criterion: Dmax strictly below 80%. Is it met by CC(C)(C(=O)NCc1cc(Cl)c(C2CCC(=O)NC2=O)c(Cl)c1)c1ccc(=O)[nH]c1 (stereo not drawn) [Compound 79] ? not met

hey, is Dmax for CC(C)(C(=O)NCc1cc(Cl)c(C2CCC(=O)NC2=O)c(Cl)c1)c1ccc(CC#N)nn1 (stereo not drawn) [Compound 214] lower than 80% or not? met

Record COc1cnc(C(C)(C)C(=O)NCc2cc(Cl)c(C3CCC(=O)NC3=O)c(Cl)c2)cn1 (stereo not drawn) [Compound 209] : is its Dmax strictly below 80%? not met

Consider Cn1ccc2cc(C(C)(C)C(=O)NCc3cc(Cl)c(C4CCC(=O)NC4=O)c(Cl)c3)ccc21 (stereo not drawn) [Compound 90] . Does its Dmax lie strictly below 80%? not met

The measured values listed here are drawn from patent US20250243180A1.
